target: rat collagen (acid soluble, type I, rat tail, Upstate 08-115) (rat) (UniProt P02454); experiment: dried collagen assay, 5 uM each
Sequence (P02454 152-1207, chain 1 of 2): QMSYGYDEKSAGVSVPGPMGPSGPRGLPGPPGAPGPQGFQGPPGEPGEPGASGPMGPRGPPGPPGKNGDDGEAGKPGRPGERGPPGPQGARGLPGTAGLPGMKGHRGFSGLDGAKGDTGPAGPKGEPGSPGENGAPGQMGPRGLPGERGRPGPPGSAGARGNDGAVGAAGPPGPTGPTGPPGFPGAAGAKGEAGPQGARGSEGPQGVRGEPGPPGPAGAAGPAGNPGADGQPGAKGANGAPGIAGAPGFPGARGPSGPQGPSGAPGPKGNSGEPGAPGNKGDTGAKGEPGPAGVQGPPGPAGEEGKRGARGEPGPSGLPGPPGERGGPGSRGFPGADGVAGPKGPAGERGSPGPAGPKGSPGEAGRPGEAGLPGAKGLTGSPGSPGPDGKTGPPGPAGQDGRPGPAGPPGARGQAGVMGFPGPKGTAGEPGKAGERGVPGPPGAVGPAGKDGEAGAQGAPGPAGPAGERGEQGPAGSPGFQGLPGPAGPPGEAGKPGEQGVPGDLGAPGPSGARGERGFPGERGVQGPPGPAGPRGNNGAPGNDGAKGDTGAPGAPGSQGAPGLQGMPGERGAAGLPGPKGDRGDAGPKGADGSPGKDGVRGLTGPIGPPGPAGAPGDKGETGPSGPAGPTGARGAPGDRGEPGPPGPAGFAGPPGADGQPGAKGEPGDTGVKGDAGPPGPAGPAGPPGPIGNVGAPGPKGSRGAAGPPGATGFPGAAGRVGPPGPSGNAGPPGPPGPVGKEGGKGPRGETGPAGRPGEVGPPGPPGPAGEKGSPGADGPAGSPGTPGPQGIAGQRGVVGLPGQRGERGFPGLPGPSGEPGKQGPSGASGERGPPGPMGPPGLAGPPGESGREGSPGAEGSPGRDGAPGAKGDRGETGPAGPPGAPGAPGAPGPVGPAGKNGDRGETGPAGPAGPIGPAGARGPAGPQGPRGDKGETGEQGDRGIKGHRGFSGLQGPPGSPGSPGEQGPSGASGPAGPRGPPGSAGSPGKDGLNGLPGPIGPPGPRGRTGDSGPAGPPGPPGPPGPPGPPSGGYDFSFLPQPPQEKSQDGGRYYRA
Sequence (P02466 86-1125, chain 2 of 2, further chain): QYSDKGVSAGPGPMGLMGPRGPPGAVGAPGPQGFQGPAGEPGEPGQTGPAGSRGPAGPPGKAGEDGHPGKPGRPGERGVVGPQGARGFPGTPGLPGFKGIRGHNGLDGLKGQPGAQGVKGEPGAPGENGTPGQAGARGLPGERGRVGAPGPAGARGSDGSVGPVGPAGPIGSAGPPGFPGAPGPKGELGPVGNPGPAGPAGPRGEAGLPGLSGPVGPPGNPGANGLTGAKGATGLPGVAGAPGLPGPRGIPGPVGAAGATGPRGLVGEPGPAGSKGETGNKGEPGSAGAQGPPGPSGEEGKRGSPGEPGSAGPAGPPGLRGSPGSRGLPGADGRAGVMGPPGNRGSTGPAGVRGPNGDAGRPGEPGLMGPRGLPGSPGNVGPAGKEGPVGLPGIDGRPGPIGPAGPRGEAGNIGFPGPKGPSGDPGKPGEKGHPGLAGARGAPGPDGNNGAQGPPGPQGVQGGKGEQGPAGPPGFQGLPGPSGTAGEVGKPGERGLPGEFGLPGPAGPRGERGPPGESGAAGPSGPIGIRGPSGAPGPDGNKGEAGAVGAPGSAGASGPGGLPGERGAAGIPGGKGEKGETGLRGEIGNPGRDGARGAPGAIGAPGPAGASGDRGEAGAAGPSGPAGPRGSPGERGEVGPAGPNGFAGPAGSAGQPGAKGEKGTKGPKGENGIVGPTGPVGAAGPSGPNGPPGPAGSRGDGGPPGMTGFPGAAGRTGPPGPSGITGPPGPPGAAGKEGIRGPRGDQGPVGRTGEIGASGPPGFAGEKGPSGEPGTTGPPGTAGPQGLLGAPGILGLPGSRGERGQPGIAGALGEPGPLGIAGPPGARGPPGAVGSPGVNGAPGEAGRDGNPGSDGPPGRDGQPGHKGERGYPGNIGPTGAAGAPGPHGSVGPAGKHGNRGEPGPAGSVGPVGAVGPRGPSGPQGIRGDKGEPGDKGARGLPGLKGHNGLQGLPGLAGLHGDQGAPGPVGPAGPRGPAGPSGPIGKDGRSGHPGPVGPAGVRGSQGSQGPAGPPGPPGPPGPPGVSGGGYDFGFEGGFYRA
Each item that follows carries a reported Rat binding.
Give the value in % but do not write % after it.

Example binders with recorded Rat binding:
binder="DWTCRGDEYTWHCNYE [Compound ID 822]" unit_annotation=% reported_value=20
binder="GKWHCYTKFPHHYCVYG [Compound ID 978]" unit_annotation=% reported_value=66
binder="GQWHCTSRFPHHYCLYG [Compound ID 898]" unit_annotation=% reported_value=3
binder="DWTCSRDEYTWHCNYE [Compound ID 821]" unit_annotation=% reported_value=29

[Q] Determine from records and report Rat binding for PWTCSGDEYAWHCNYE [Compound ID 824]
[A] 0

[Q] Specify reported Rat binding for the binder shown: GKWHCTTYFPHHYCLYYK [Compound ID 976]
[A] 57

[Q] Item GKWHCYTKFPHHYCKYY [Compound ID 1013] : provide Rat binding
[A] 88
